The measured values listed here are drawn from ChEMBL document CHEMBL3603764.

For each of the compounds below, state its selectivity ratio.
- test protocol: Selectivity index, ratio of TC50 for African green monkey vero cells to IC50 for Coxsackievirus B3
- Format: toxicity, cell-based
- condition summary: read-out: Selectivity Index
One number for each entry.

O=C(CCC[C@@H]1[C@H]2CCCN3CCC[C@@H](CN1S(=O)(=O)c1ccc(OC(F)(F)F)cc1)[C@@H]23)N1CCOCC1 22.5

Please give selectivity ratio, item by item, for the list that follows.
1. CN(C)C(=O)CCC[C@@H]1[C@H]2CCCN3CCC[C@@H](CN1S(=O)(=O)c1ccc(OC(F)(F)F)cc1)[C@@H]23
2. COCCCC[C@@H]1[C@H]2CCCN3CCC[C@@H](CN1S(=O)(=O)c1cccc(C(F)(F)F)c1)[C@@H]23
3. CN(C)C(=O)CCC[C@@H]1[C@H]2CCCN3CCC[C@@H](CN1S(=O)(=O)c1cccc(C(F)(F)F)c1)[C@@H]23

Completion:
1: 63.3; 2: 57.4; 3: 67.2

Please give selectivity ratio, item by item, for the list that follows.
1. COCCCC[C@@H]1[C@H]2CCCN3CCC[C@@H](CN1S(=O)(=O)c1cccc(C#N)c1)[C@@H]23
2. O=S(=O)(c1ccc(OC(F)(F)F)cc1)N1C[C@@H]2CCCN3CCC[C@@H]([C@H]23)[C@H]1CCCCO
3. NC(=O)CCC[C@@H]1[C@H]2CCCN3CCC[C@@H](CN1S(=O)(=O)c1cccc(C(F)(F)F)c1)[C@@H]23

Completion:
1. 39.5
2. 10.1
3. 40.8
